- System: HeLa
- EXPERIMENT SUMMARY: Induction of apoptosis in human HeLa cells assessed as late apoptotic cells at 25 uM after 24 hrs using Annexin-V/PI staining by flow cytometry (reference value: 4.31 %)
- Assay type: functional
Quick reference for Activity among some compounds
Units required after the number.

Exercise: Return Activity (reported value) for this compound: COc1ccc2c(c1OC)C(=O)O[C@@H]2[C@H]1c2c(c(-c3ccccc3)c3c(c2OC)OCO3)CCN1C
Solution: 18.4%

Exercise: Return Activity (reported value) for this compound: COc1ccc2c(c1OC)C(=O)O[C@@H]2[C@H]1c2c(c(-c3ccc(C)cc3)c3c(c2OC)OCO3)CCN1C
Solution: 22.9%

Exercise: Return Activity (reported value) for this compound: COc1ccc2c(c1OC)C(=O)O[C@@H]2[C@H]1c2c(c(Br)c3c(c2OC)OCO3)CCN1C
Solution: 44.7%

Exercise: Return Activity (reported value) for this compound: COc1ccc2c(c1OC)C(=O)O[C@@H]2[C@H]1c2c(c(C)c3c(c2OC)OCO3)CCN1C
Solution: 13.9%

* * *

- TARGET ENTITY: Tubulin (Bos taurus) (UniProt Q6B856+Q862L2+Q862F3)
- EXPERIMENT SUMMARY: Displacement of [3H]colchicine from bovine brain tubulin at 500 uM after 10 mins by liquid scintillation counting
REPORTED PROPERTY: inhibition
Units required after the number.

COc1ccccc1-c1c2c(c(OC)c3c1OCO3)[C@H]([C@H]1OC(=O)c3c1ccc(OC)c3OC)N(C)CC2: 13%

Exercise: Return inhibition (reported value) for this compound: COc1cccc(-c2c3c(c(OC)c4c2OCO4)[C@H]([C@H]2OC(=O)c4c2ccc(OC)c4OC)N(C)CC3)c1
Solution: 38%

Exercise: Return inhibition (reported value) for this compound: COc1ccc2c(c1OC)C(=O)O[C@@H]2[C@H]1c2c(c(C)c3c(c2OC)OCO3)CCN1C
Solution: 39%

Exercise: Return inhibition (reported value) for this compound: COc1ccc2c(c1OC)C(=O)O[C@@H]2[C@H]1c2c(cc3c(c2OC)OCO3)CCN1C
Solution: 44%

* * *

- TARGET ENTITY: Tubulin (Bos taurus, UniProt Q6B856+Q862L2+Q862F3)
- EXPERIMENT SUMMARY: Inhibition of bovine brain tubulin assessed as rate of assembly preincubated for 15 mins by turbidimetry
REPORTED PROPERTY: IC50 (µM)
The answer is to be given in µM; state only the numeric part.

COc1cccc(-c2c3c(c(OC)c4c2OCO4)[C@H]([C@H]2OC(=O)c4c2ccc(OC)c4OC)N(C)CC3)c1: 170

Moving on to another compound below.
Exercise: Return IC50 (reported value) for this compound: COc1ccc2c(c1OC)C(=O)O[C@@H]2[C@H]1c2c(c(C)c3c(c2OC)OCO3)CCN1C
Solution: 220

* * *

- EXPERIMENT SUMMARY: Antiproliferative activity against human RS4:11 cells assessed as reduction in cell viability after 72 hrs by MTT assay
- Assay type: functional, cell-based
- ASSAY CONTEXT: RS4-11, 72 h
Quick reference for pIC50 among some compounds
Recall that pIC50 is obtained by taking minus log10 of the concentration measured in molar.

Exercise: Return pIC50 (reported value) for this compound: COc1ccccc1-c1c2c(c(OC)c3c1OCO3)[C@H]([C@H]1OC(=O)c3c1ccc(OC)c3OC)N(C)CC2
Solution: 4.86

Exercise: Return pIC50 (reported value) for this compound: COc1ccc2c(c1OC)C(=O)O[C@@H]2[C@H]1c2c(c(-c3ccc4ccccc4c3)c3c(c2OC)OCO3)CCN1C
Solution: 4.51

Exercise: Return pIC50 (reported value) for this compound: COc1ccc2c(c1OC)C(=O)O[C@@H]2[C@H]1c2c(c(Br)c3c(c2OC)OCO3)CCN1C
Solution: 5.85

Exercise: Return pIC50 (reported value) for this compound: COc1ccc(-c2c3c(c(OC)c4c2OCO4)[C@H]([C@H]2OC(=O)c4c2ccc(OC)c4OC)N(C)CC3)cc1
Solution: 4.90

Exercise: Return pIC50 (reported value) for this compound: COc1ccc2c(c1OC)C(=O)O[C@@H]2[C@H]1c2c(c(-c3ccc(C)cc3)c3c(c2OC)OCO3)CCN1C
Solution: 4.79

Exercise: Return pIC50 (reported value) for this compound: COc1cccc(-c2c3c(c(OC)c4c2OCO4)[C@H]([C@H]2OC(=O)c4c2ccc(OC)c4OC)N(C)CC3)c1
Solution: 5.15

Exercise: Return pIC50 (reported value) for this compound: COc1ccc2c(c1OC)C(=O)O[C@@H]2[C@H]1c2c(c(C)c3c(c2OC)OCO3)CCN1C
Solution: 4.80

Exercise: Return pIC50 (reported value) for this compound: COc1ccc2c(c1OC)C(=O)O[C@@H]2[C@H]1c2c(c(-c3ccccc3)c3c(c2OC)OCO3)CCN1C
Solution: 5.62

* * *

- EXPERIMENT SUMMARY: Antiproliferative activity against human SEM cells assessed as reduction in cell viability after 72 hrs by MTT assay
- Type: functional, cell-based
Quick reference for pIC50 among some compounds
Recall that pIC50 is obtained by taking minus log10 of the concentration measured in molar.

Example cases with answers are listed next.
COc1ccc2c(c1OC)C(=O)O[C@@H]2[C@H]1c2c(c(-c3ccc(C)cc3)c3c(c2OC)OCO3)CCN1C: 5.13
COc1ccccc1-c1c2c(c(OC)c3c1OCO3)[C@H]([C@H]1OC(=O)c3c1ccc(OC)c3OC)N(C)CC2: 4.65
COc1ccc2c(c1OC)C(=O)O[C@@H]2[C@H]1c2c(c(-c3ccc4ccccc4c3)c3c(c2OC)OCO3)CCN1C: 5.08

Exercise: Return pIC50 (reported value) for this compound: COc1ccc2c(c1OC)C(=O)O[C@@H]2[C@H]1c2c(c(-c3ccccc3)c3c(c2OC)OCO3)CCN1C
Solution: 5.49

Exercise: Return pIC50 (reported value) for this compound: COc1ccc2c(c1OC)C(=O)O[C@@H]2[C@H]1c2c(c(Br)c3c(c2OC)OCO3)CCN1C
Solution: 5.74

Exercise: Return pIC50 (reported value) for this compound: COc1cccc(-c2c3c(c(OC)c4c2OCO4)[C@H]([C@H]2OC(=O)c4c2ccc(OC)c4OC)N(C)CC3)c1
Solution: 4.89

Exercise: Return pIC50 (reported value) for this compound: COc1ccc(-c2c3c(c(OC)c4c2OCO4)[C@H]([C@H]2OC(=O)c4c2ccc(OC)c4OC)N(C)CC3)cc1
Solution: 4.82

Exercise: Return pIC50 (reported value) for this compound: COc1ccc2c(c1OC)C(=O)O[C@@H]2[C@H]1c2c(c(C)c3c(c2OC)OCO3)CCN1C
Solution: 5.37

* * *

Quick reference for IC50 among some molecules
- System: A549
- EXPERIMENT SUMMARY: Antiproliferative activity against human A549 cells assessed as reduction in cell viability after 72 hrs by MTT assay
- Format: functional, cell-based
- ASSAY CONTEXT: A549, 72 h

Exercise: Return IC50 (reported value) for this molecule: COc1ccc(-c2c3c(c(OC)c4c2OCO4)[C@H]([C@H]2OC(=O)c4c2ccc(OC)c4OC)N(C)CC3)cc1
Solution: > 100 µM

Exercise: Return IC50 (reported value) for this molecule: COc1ccc2c(c1OC)C(=O)O[C@@H]2[C@H]1c2c(c(Br)c3c(c2OC)OCO3)CCN1C
Solution: 73.9 µM

Exercise: Return IC50 (reported value) for this molecule: COc1ccccc1-c1c2c(c(OC)c3c1OCO3)[C@H]([C@H]1OC(=O)c3c1ccc(OC)c3OC)N(C)CC2
Solution: 59.7 µM

Exercise: Return IC50 (reported value) for this molecule: COc1ccc2c(c1OC)C(=O)O[C@@H]2[C@H]1c2c(c(-c3ccc4ccccc4c3)c3c(c2OC)OCO3)CCN1C
Solution: 48.1 µM

Exercise: Return IC50 (reported value) for this molecule: COc1ccc2c(c1OC)C(=O)O[C@@H]2[C@H]1c2c(c(-c3ccc(C)cc3)c3c(c2OC)OCO3)CCN1C
Solution: 22.2 µM

Exercise: Return IC50 (reported value) for this molecule: COc1ccc2c(c1OC)C(=O)O[C@@H]2[C@H]1c2c(c(C)c3c(c2OC)OCO3)CCN1C
Solution: > 100 µM

Exercise: Return IC50 (reported value) for this molecule: COc1cccc(-c2c3c(c(OC)c4c2OCO4)[C@H]([C@H]2OC(=O)c4c2ccc(OC)c4OC)N(C)CC3)c1
Solution: > 100 µM

* * *

- TARGET ENTITY: Tubulin (Bos taurus, UniProt Q6B856+Q862L2+Q862F3)
- EXPERIMENT SUMMARY: Inhibition of bovine brain tubulin assessed as extent of assembly preincubated for 15 mins by turbidimetry
REPORTED PROPERTY: IC50

Example cases with answers are listed next.
COc1ccc2c(c1OC)C(=O)O[C@@H]2[C@H]1c2c(cc3c(c2OC)OCO3)CCN1C [NOSCAPINE]: > 400 µM
COc1ccc2c(c1OC)C(=O)O[C@@H]2[C@H]1c2c(c(C)c3c(c2OC)OCO3)CCN1C: > 400 µM
COc1ccc2c(c1OC)C(=O)O[C@@H]2[C@H]1c2c(c(-c3ccccc3)c3c(c2OC)OCO3)CCN1C: > 400 µM

Exercise: Return IC50 (reported value) for this molecule: COc1ccc2c(c1OC)C(=O)O[C@@H]2[C@H]1c2c(c(-c3ccc(C)cc3)c3c(c2OC)OCO3)CCN1C
Solution: 120 µM
